Values compiled from paper PMC6297231.

tested on: OCILY19; test: cells; conditions: Homo sapiens, OCI-LY19, 6 h, read-out: AZD5991 6h EC50
pEC50: −log10 of the molar value.

[
  {
    "compound": "Cc1c2c(nn1C)CSCc1cc(n(C)n1)CSc1cc(c3ccccc3c1)OCCCc1c(C(=O)O)n(C)c3c-2c(Cl)ccc13 (atropisomer, axis not shown; (Ra)) [(Ra)-7]",
    "pEC50": 6.73
  }
]

* * *

test system: OV90; test: cells; conditions: Homo sapiens, OV-90, 6 h, read-out: AZD5991 6h EC50
pEC50: −log10 of the molar value.

[
  {
    "compound": "Cc1c2c(nn1C)CSCc1cc(n(C)n1)CSc1cc(c3ccccc3c1)OCCCc1c(C(=O)O)n(C)c3c-2c(Cl)ccc13 (atropisomer, axis not shown; (Ra)) [(Ra)-7]",
    "pEC50": "< 4.52"
  }
]

* * *

tested on: MDAMB231; assay: cells; settings: Homo sapiens, MDA-MB-231, 6 h, read-out: AZD5991 6h EC50
pEC50: −log10 of the molar value.

[
  {
    "compound": "Cc1c2c(nn1C)CSCc1cc(n(C)n1)CSc1cc(c3ccccc3c1)OCCCc1c(C(=O)O)n(C)c3c-2c(Cl)ccc13 (atropisomer, axis not shown; (Ra)) [(Ra)-7]",
    "targetDesc": "MDAMB231",
    "pEC50": "< 4.52"
  }
]

* * *

test system: Nomo1; assay: Caspase-3/7 activation assay; assay type: cell-based; details: Homo sapiens, NOMO-1, 6 h, read-out: 6h caspase EC50; NOMO1, single agent
List of EC50 values.
parameter: EC50

[
  {
    "compound": "Cc1c2c(nn1C)CSCc1cc(n(C)n1)CSc1cc(c3ccccc3c1)OCCCc1c(C(=O)O)n(C)c3c-2c(Cl)ccc13 (atropisomer, axis not shown; (Ra)) [(Ra)-7]",
    "parameter": "EC50",
    "recordedMeasurement": "32.5 nM"
  },
  {
    "compound": "CC1(C)CCC(CN2CCN(c3ccc(C(=O)NS(=O)(=O)c4ccc(NCC5CCOCC5)c([N+](=O)[O-])c4)c(Oc4cnc5[nH]ccc5c4)c3)CC2)=C(c2ccc(Cl)cc2)C1 [venetoclax, reference compound]",
    "parameter": "EC50",
    "recordedMeasurement": "> 333 nM"
  }
]

* * *

tested on: MM1S; experiment: cells; conditions: Homo sapiens, MM1.S, 6 h, read-out: AZD5991 6h EC50
parameter: EC50 (µM)

[
  {
    "compound": "Cc1c2c(nn1C)CSCc1cc(n(C)n1)CSc1cc(c3ccccc3c1)OCCCc1c(C(=O)O)n(C)c3c-2c(Cl)ccc13 (atropisomer, axis not shown; (Ra)) [(Ra)-7]",
    "unitSpec": "µM",
    "recordedMeasurement": 3.6
  }
]

* * *

target: Bcl-2 (Homo sapiens, UniProt P10415)
Sequence (P10415 1-212): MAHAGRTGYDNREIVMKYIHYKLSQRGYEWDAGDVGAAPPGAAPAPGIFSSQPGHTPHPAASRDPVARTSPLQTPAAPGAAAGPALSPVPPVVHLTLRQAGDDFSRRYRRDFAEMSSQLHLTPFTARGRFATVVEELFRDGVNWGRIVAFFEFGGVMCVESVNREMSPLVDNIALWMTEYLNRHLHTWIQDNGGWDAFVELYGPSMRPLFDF

[
  {
    "molecule": "Cc1c2c(nn1C)CSCc1cc(n(C)n1)CSc1cc(c3ccccc3c1)OCCCc1c(C(=O)O)n(C)c3c-2c(Cl)ccc13 (atropisomer, axis not shown; (Ra)) [(Ra)-7]",
    "unitSpec": "µM",
    "IC50": 20
  }
]
